Data origin, for the record: paper PMC12136788

// reported binding signal for each item listed
# target entity: T1, UNK ZnF1-3 (human, UniProt Q9C0B0 31-174)
# T1 sequence: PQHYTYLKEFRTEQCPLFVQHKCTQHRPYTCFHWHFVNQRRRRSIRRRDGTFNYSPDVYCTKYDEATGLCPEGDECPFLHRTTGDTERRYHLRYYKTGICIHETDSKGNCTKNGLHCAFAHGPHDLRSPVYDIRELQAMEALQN
# assay details: nsRBNS (natural sequence RNA bind-n-seq); RBNS binding buffer (assumed for nsRBNS): 25 mM Tris pH 7.5, 150 mM KCl, 3 mM MgCl2, 0.01% Triton X-100, 500 ug/ml BSA, 20 U/ml SUPERase-In, 4 C; UNK is unkempt and MSI1 is Musashi-1; names of the RNAs are library labels; protein concentration not given here; high values mean tight binding
Over roughly 24,000 sequences, “enrichment r” has its median near 0.99; the highest 2% begin near 3.7. The full list was thinned out, with the highest values kept by preference.
Give just the numeric value; enrichment R need not be written.

Field: example entries. Status: answers known.
chr7:151048522:151048523:+_ENSG00000013374_ENST00000566856|hu_mus|hu_hu_hu_mus_True|18_78 (ssRNA) RNA: GGGAGUUCUACAGUCCGACGAUCCUGUUUCUUAUUUAUUACGAUCUUGAUGUAAUUUUCUUGAAGUCCGAAAGUUUCAGCUAUUUGACACCUCAGGUCUCUACCAGUGACAUGCAAUCGGGUCUCCAACAAGCUUUUCUUAUCCAACAGAGGAUUGAGCAUCA	0.639
chr4:25749455:25749456:-_ENSG00000091490_ENST00000264868|hu_hu|hu_hu_hu_mus_False|8_68 (ssRNA) RNA: GGGAGUUCUACAGUCCGACGAUCGCACUAUGACCUCUAGAAAAAUCCACAGGGGGAAAAAAUGUAAACCAAUUUACAAUGUUAUCGCCUUCCCUGUGUGUGGAGUGUUUGUCUCAAGGCUCCUUCUUGCCUUAUAAUUUGGGACAACAGAGGAUUGAGCAUCA	0.719
chr16:94690093:94690094:+_ENSMUSG00000040785_ENSMUST00000117648|mus_hu|mus_mus_mus_hu_True|18_68 (ssRNA) RNA: GGGAGUUCUACAGUCCGACGAUCGGGCUGGGAUGACGGACACACAGCCUCGAUUCCAGGGGGAAAAAAAAAUAGCCGAUACUAAUUAAAAAGUGUUAAUGAUUUUUGAAAAUCAGAUGUAGAUUAAAAAAGAUGAAAAGCAAACAACAGAGGAUUGAGCAUCA	3.66

Consider the binder chr1:150192712:150192713:-_ENSG00000143401_ENST00000314136|hu_hu|FALSE|FALSE (ssRNA) RNA: GGGAGUUCUACAGUCCGACGAUCGCACCAUACUACACCUGUGUAAAAGUGAUCAUGUUUUAAUUAUGGGCUAAAAAUGACUAAUACAGUAAGCUUGAAUUUAAAAAAUUAAGUCUAAAUAAAUUGCUAGGGAAUUCCACAAUGCAACAGAGGAUUGAGCAUCA and give its measured binding signal.
5.25

Consider the binder chr16:11966626:11966627:-_ENSG00000103342_ENST00000563468|hu_hu|FALSE|FALSE (ssRNA) RNA: GGGAGUUCUACAGUCCGACGAUCUUGUAACAUGUGCACACACACUCGCACACUCAGAAUGAUCUGCCUGGGGGAAAAAUACUAAAUAUGCCUAAGGGGAAAAUGAAAAAUAAAAAAAUUCCUGUAGGUUUUCAUUAUUGUAGGCAACAGAGGAUUGAGCAUCA and give its measured binding signal.
3.28
